# Assayed target: DRB3*0101 (DR52a)
# Assay info: binding to purified HLA
pIC50: −log10 of the molar value.
Known pIC50 of a selection of binders
Measured quantity: pIC50

Binder: GSISYPARYANAMAV [B. lentus 157]
Measured quantity: pIC50
Reported relation: <
Meas value: 5.03
--
Binder: SYPARYANAMAVGAT [B. lentus .160]
Measured quantity: pIC50
Reported relation: =
Meas value: 5.21
--
Binder: NGIEWAIANNMDVIN [BPN' Y217L .109]
Measured quantity: pIC50
Reported relation: =
Meas value: 6.92
--
Binder: GTVAALNNSIGVLGV [BPN' Y217L .70]
Measured quantity: pIC50
Reported relation: =
Meas value: 5.70
